Biological target: T1, Recombinant Human IL-1α (human, UniProt P01583 113-271)
T1 construct: Bought recombinant protein; Biotinylated in the capture ELISA; also called hIL-1α; IL-1 alpha
T1 sequence (looked up): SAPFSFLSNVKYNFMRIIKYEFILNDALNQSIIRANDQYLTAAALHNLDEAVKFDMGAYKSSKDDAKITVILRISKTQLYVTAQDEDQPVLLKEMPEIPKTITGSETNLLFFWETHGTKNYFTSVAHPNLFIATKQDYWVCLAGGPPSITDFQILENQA
Experiment: SPR (BIACORE), human antigen
Measured parameter: kon (M⁻¹ s⁻¹)
Give just the numeric value; M⁻¹ s⁻¹ need not be written.

3D12.16 (antibody, human IgG1, kappa, L234A L235A, V domains shown, Parent anti-IL-1α antibody; also called 3D12.16VH; 3D12.16VL) VH: EIQLVQSGAEVKKPGASVKVSCKASGYTFTNYGMNWVRQAPGQDLERMAWINTYTGESTYADDFKGRFTFTLDTSTSTAYMELSSLRSEDTAVYFCARGIYYYGSSYAMDYWGQGTTVTVSS VL: DIQMTQSPSSLSASVGDRVTITCRASQDISNCLNWYQQKPGKTPKLLIYYTSRLHSGVPSRFSGSGSGTDYTFTISSLQPEDIATYFCQQGKTLPYAFGQGTKLEIKR: 1.21e+06

Lookup: // query kon value for entry 3D12r16 (antibody, human IgG1, kappa, L234A L235A, V domains shown, Parent anti-IL-1α antibody; also called 3D12r16VH; 3D12r16VL) VH: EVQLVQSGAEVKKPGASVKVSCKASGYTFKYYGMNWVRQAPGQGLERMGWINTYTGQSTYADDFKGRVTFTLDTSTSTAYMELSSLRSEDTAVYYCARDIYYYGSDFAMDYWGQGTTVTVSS VL: DIQMTQSPSSLSASVGDRVTITCRASQDISNMLNWYQQKPGKAPKLLIYYTSRLKPGVPSRFSGSGSGTDYTFTISSLQPEDIATYFCQQGKTAPYTFGQGTKLEIKR
Found: 900000

Lookup: // query kon value for entry 3D12.10/15 (antibody, human IgG1, kappa, L234A L235A, V domains shown, Parent anti-IL-1α antibody; also called 3D12 10/15VH; 3D12 10/15VL) VH: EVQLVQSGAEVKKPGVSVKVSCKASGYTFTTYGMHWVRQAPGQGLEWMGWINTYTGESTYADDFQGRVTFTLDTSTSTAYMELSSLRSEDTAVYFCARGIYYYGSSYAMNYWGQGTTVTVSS VL: DIQMTQSPSSLSASVGDRVTITCRASQDISNMLNWYQQKPGKTPKLLIYYTSRLYPGVPSRFSGSGSGTDYTFTISSLQPEDIATYFCQQGKTLPYAFGQGTKLEIKR
Found: 355000

Lookup: // query kon value for entry 3D12.8 (antibody, human IgG1, kappa, L234A L235A, V domains shown, Parent anti-IL-1α antibody; also called 3D12.8VH; 3D12.8VL) VH: EIQLVQSGSELKKPGASVKVSCKASGYTFTNYGMNWVRQAPGQDLERMAWINTYTGESTYADDFKGRFVFSLDTSVSTAYLQISSLKAEDTAVYFCARGIYYYGSSYAMDYWGQGTTVTVSS VL: DIQMTQSPSSLSASVGDRVTITCRASQDISNCLNWYQQKPGKTPKLLIYYTSRLHSGVPSRFSGSGSGTDYTFTISSLQPEDIATYFCQQGKTLPYAFGQGTKLEIKR
Found: 2.04e+06

# credit: patent US20120189541A1
